# Tested on: Hs578T complex spheroid growth, percent test/control
# experiment: Anticancer human tumor Hs578T cell line growth inhibition [AhR];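 note: luminescent viability signal as a proxy for spheroid growth; spheroids exposed to agents for one week after three days of growth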
# conditionDescription: curve of first compound; second compound 1 µM
measuredQuantity: pIC50
A value of pIC50 is the negative decimal logarithm of a concentration given in moles per litre.

Entry COc1cccc2c1C(=O)c1c(O)c3c(c(O)c1C2=O)CC(O)(C(=O)CO)CC3OC1CC(N)C(O)C(C)O1 (stereo unspecified) + Cc1cncc(-c2nc(NCCc3c[nH]c4ccccc34)c3ncn(C(C)C)c3n2)c1 — recorded pIC50 = 6.44

Lab book: pIC50 of CC(C)CC(NC(=O)C(Cc1ccccc1)NC(=O)c1cnccn1)B(O)O (stereo unspecified) + CC(CO)NC(=O)c1cc(-c2ccc(Cl)cc2)nn(-c2cnn(C)c2)c1=O noted as 8.34

# compound O=C(C=Cn1cnc(-c2cc(C(F)(F)F)cc(C(F)(F)F)c2)n1)NNc1cnccn1 + CC(CO)NC(=O)c1cc(-c2ccc(Cl)cc2)nn(-c2cnn(C)c2)c1=O ; its pIC50 = 6.45
